Several publications report Ki on 5-hydroxytryptamine receptor 1A (Homo sapiens, UniProt P08908); those values are gathered here.
Sequence (P08908 whole entry): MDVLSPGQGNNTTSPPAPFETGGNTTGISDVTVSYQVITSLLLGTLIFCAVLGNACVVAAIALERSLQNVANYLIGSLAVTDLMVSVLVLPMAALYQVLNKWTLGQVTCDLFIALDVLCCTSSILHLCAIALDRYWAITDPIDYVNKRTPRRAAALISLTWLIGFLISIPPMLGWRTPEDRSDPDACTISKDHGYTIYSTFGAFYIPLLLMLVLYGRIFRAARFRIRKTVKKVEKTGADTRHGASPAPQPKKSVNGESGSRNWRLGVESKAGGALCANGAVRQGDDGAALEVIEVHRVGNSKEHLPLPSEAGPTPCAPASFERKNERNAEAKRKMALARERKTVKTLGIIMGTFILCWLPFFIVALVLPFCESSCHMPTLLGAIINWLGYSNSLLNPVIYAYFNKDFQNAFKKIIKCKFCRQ
recordedEndpoint: Ki (µM)

Observe how each entry below is paired with its result.
- compound: "CC(C)CS(=O)(=O)NC1CCN(CCOc2ccccc2C(C)C)CC1"
  measuredTarget: "5-hydroxytryptamine receptor 1A (Homo sapiens, UniProt P08908)"
  val: 0.278
- compound: "COc1cccc(N2CCN(CC(O)CN3C(=O)NC(C)(c4ccc(F)cc4)C3=O)CC2)c1 (stereo unspecified)"
  measuredTarget: "5-hydroxytryptamine receptor 1A (Homo sapiens, UniProt P08908)"
  val: 2.97
- compound: "COc1cccc(N2CCN(CCN3C(=O)CC4(CCCC4)CC3=O)CC2)c1"
  measuredTarget: "5-hydroxytryptamine receptor 1A (Homo sapiens, UniProt P08908)"
  val: 0.0134
- compound: "O=C(CCN1CCN(c2ccccn2)CC1)c1ccccc1"
  measuredTarget: "5-hydroxytryptamine receptor 1A (Homo sapiens, UniProt P08908)"
  val: 0.0501
- compound: "O=S1(=O)c2cccc3cccc(c23)N1CCCCCCN1CCN(c2ccccc2F)CC1"
  measuredTarget: "5-hydroxytryptamine receptor 1A (Homo sapiens, UniProt P08908)"
  val: 0.081
- compound: "COc1cccc(N2CCN(CCCCCCN3C(=O)c4ccccc4S3(=O)=O)CC2)c1"
  measuredTarget: "5-hydroxytryptamine receptor 1A (Homo sapiens, UniProt P08908)"
  val: 0.019
- compound: "CC1(c2ccc(Cl)cc2)NC(=O)N(CC(O)CN2CCN(c3ccccc3C#N)CC2)C1=O.Cl (racemic)"
  measuredTarget: "5-hydroxytryptamine receptor 1A (Homo sapiens, UniProt P08908)"
  val: 0.305
- compound: "COc1cccc(N2CCN(CCCCNC(=O)c3ccccn3)CC2)c1"
  measuredTarget: "5-hydroxytryptamine receptor 1A (Homo sapiens, UniProt P08908)"
  val: 0.036

I. O=S(=O)(c1cccc2ncccc12)N1CCC(CCN2CCN(c3cccc(F)c3)CC2)CC1
II. COc1ccccc1N1CCN(CCCNc2cc(-c3ccccc3)nn(C)c2=O)CC1
III. CC1(c2ccc(F)cc2)NC(=O)N(CC(O)CN2CCN(C(=O)c3ccccc3)CC2)C1=O (stereo unspecified)
IV. CC(C)Oc1ccccc1OCCNCC1COC(c2ccccc2)(c2ccccc2)O1 (racemic)
Ordering: ascending Ki. Return the labels ranked in the requested order, please. IV, II, I, III

A. Cc1ccc2c(OCCN3CCN(Cc4ccc(O)c([N+](=O)[O-])c4)CC3)cccc2n1
B. Cc1cc(Cl)ccc1OCc1nc(N)nc(N2CCN(C)CC2)n1
Could you determine which record has the numerically smaller Ki? Candidates: A and B Refer to your chosen item by its label in the answer. A
(A: 0.794 µM, B: 7.69 µM)

A. O=C1c2ccccc2S(=O)(=O)N1CCCCCCN1CCN(c2cccc3ccccc23)CC1
B. Cc1cccc(C)c1OCCNCCOc1ccccc1OCc1ccccc1
C. COc1ccccc1N1CCN(CCCN2C(=O)CCCn3c2nc2c3c(=O)n(C)c(=O)n2C)CC1
D. O=c1[nH]c2[nH]c(-c3ccc(Cl)cc3)cc2c(=O)n1CCN1CCN(c2ccccc2Cl)CC1
List items by Ki in falling order. Return the labels ranked in the requested order, please. D, C, B, A
(D: 1.51 µM, C: 0.168 µM, B: 0.0158 µM, A: 0.009 µM)
